STUDY_SYSTEM: endothelial lipase (EL) (Homo sapiens, UniProt Q9Y5X9)
Construct: made in house; host or cells: recombinant CHO or HEK293 cell lines; concentrated conditioned medium used as enzyme solution
Sequence (Q9Y5X9 21-500, species assumed): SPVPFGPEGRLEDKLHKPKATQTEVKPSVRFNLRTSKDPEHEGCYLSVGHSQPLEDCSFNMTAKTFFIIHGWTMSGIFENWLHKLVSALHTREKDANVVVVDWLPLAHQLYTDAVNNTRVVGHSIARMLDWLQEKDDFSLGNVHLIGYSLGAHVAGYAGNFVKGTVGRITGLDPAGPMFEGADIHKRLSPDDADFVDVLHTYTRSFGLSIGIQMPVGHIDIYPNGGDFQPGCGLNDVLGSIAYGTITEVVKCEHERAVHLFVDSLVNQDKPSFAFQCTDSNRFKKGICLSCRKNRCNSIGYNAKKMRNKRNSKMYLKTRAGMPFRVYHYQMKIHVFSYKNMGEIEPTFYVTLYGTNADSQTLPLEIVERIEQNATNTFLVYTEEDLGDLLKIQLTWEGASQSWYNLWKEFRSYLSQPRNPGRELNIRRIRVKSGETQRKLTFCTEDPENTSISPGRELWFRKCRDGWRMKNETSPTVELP
TEST_NAME: EL inhibition assay (EL activity assay with fluorescent Bodipy phospholipid substrate)
Type: biochemical
DETAILS: EL from conditioned medium of recombinant cell lines (CHO, HEK293); 37° C., 90 minutes; Bodipy-labeled phosphocholine substrate
READOUT_TYPE: IC50 (µM)

>  <MOLECULE>
Cc1ccccc1CNC(=O)n1c(=O)n(C)c2cccnc21 [Example 2]

>  <IC50 [µM]>
0.24

$$$$
>  <MOLECULE>
CCCCCCNC(=O)n1c(=O)n(C(=O)OC(C)(C)C)c2c(C)ccnc21 [Example 7]

>  <IC50 [µM]>
0.146

$$$$
>  <MOLECULE>
Cn1c(=O)n(C(=O)N[C@@H]2CCc3ccccc32)c2ncccc21 [Example 9]

>  <IC50 [µM]>
0.232

$$$$

[P] CCCCCCNC(=O)n1c(=O)n(C(=O)NCCCCCC)c2cnccc21 [Example 8]
[Q] CCCCCCNC(=O)n1c(=O)n(C)c2cccnc21 [Example 1]
Prompt: Among P and Q , which shows a numerically higher IC50 result? Provide the label of your selected option as the answer.
Response: P
